organism: Mus musculus; assay: Percentage tumor growth inhibition as compared with the untreated group; assay type: functional; parameters: concentration or dose not given beside the values
Collected Inhibition values appear next to each entry.
Metric: Inhibition

[[record]]
molecule = "COC(=O)c1c(C(F)(F)F)[nH]c2c(O)cc3c(c12)[C@H](CCl)CN3C(=O)/C=C/c1cc(OC)c(/C=C/C(=O)N2C[C@@H](CCl)c3c2cc(O)c2[nH]c(C(F)(F)F)c(C(=O)OC)c32)cc1OC"
metric = "Inhibition"
endpoint_value = "81%"

[[record]]
molecule = "COC(=O)c1c(C(F)(F)F)[nH]c2c(O)cc3c(c12)[C@H](CCl)CN3C(=O)/C=C/c1ccc(/C=C/C(=O)N2C[C@@H](CCl)c3c2cc(O)c2[nH]c(C(F)(F)F)c(C(=O)OC)c32)c(OC)c1OC"
metric = "Inhibition"
endpoint_value = "89%"

[[record]]
molecule = "COC(=O)c1c(C(F)(F)F)[nH]c2c(O)cc3c(c12)[C@H](CCl)CN3C(=O)/C=C/c1cccc(/C=C/C(=O)N2C[C@@H](CCl)c3c2cc(O)c2[nH]c(C(F)(F)F)c(C(=O)OC)c32)c1"
metric = "Inhibition"
endpoint_value = "91%"

[[record]]
molecule = "COC(=O)c1c(C(F)(F)F)[nH]c2c(O)cc3c(c12)[C@H](CCl)CN3C(=O)/C=C/c1ccc(/C=C/C(=O)N2C[C@@H](CCl)c3c2cc(O)c2[nH]c(C(F)(F)F)c(C(=O)OC)c32)cc1"
metric = "Inhibition"
endpoint_value = "89%"

[[record]]
molecule = "COC(=O)c1c(C(F)(F)F)[nH]c2c(O)cc3c(c12)[C@H](CCl)CN3C(=O)/C=C/c1ccc(-c2ccc(/C=C/C(=O)N3C[C@@H](CCl)c4c3cc(O)c3[nH]c(C(F)(F)F)c(C(=O)OC)c43)cn2)nc1"
metric = "Inhibition"
endpoint_value = "88%"

[[record]]
molecule = "COC(=O)c1c(C(F)(F)F)[nH]c2c(O)cc3c(c12)[C@H](CCl)CN3C(=O)/C=C/c1ccccc1/C=C/C(=O)N1C[C@@H](CCl)c2c1cc(O)c1[nH]c(C(F)(F)F)c(C(=O)OC)c21"
metric = "Inhibition"
endpoint_value = "70%"

[[record]]
molecule = "Cc1c[nH]c2c(O)cc3c(c12)[C@H](CCl)CN3C(=O)c1cc2cc(NC(=O)Nc3ccc4[nH]c(C(=O)N5C[C@@H](CCl)c6c5cc(O)c5[nH]cc(C)c65)cc4c3)ccc2[nH]1 [BIZELESIN]"
metric = "Inhibition"
endpoint_value = "90%"

[[record]]
molecule = "COC(=O)c1c(C(F)(F)F)[nH]c2c(O)cc3c(c12)[C@H](CCl)CN3C(=O)/C=C/c1ccc(-c2ccc(/C=C/C(=O)N3C[C@@H](CCl)c4c3cc(O)c3[nH]c(C(F)(F)F)c(C(=O)OC)c43)cc2)cc1"
metric = "Inhibition"
endpoint_value = "83%"

[[record]]
molecule = "COC(=O)c1c(C(F)(F)F)[nH]c2c(O)cc3c(c12)[C@H](CCl)CN3C(=O)/C=C/c1ccc(/C=C/C(=O)N2C[C@@H](CCl)c3c2cc(O)c2[nH]c(C(F)(F)F)c(C(=O)OC)c32)c2c1OCO2"
metric = "Inhibition"
endpoint_value = "90%"

[[record]]
molecule = "COC(=O)c1c(C(F)(F)F)[nH]c2c(O)cc3c(c12)[C@H](CCl)CN3C(=O)/C=C/c1c2ccccc2c(/C=C/C(=O)N2C[C@@H](CCl)c3c2cc(O)c2[nH]c(C(F)(F)F)c(C(=O)OC)c32)c2ccccc12"
metric = "Inhibition"
endpoint_value = "75%"

[[record]]
molecule = "COC(=O)c1c(C(F)(F)F)[nH]c2c(O)cc3c(c12)[C@H](CCl)CN3C(=O)/C=C/c1ccc(/C=C/C(=O)N2C[C@@H](CCl)c3c2cc(O)c2[nH]c(C(F)(F)F)c(C(=O)OC)c32)c2c1OCCO2"
metric = "Inhibition"
endpoint_value = "91%"

[[record]]
molecule = "COC(=O)c1c(C(F)(F)F)[nH]c2c(O)cc3c(c12)[C@H](CCl)CN3C(=O)/C=C/c1ccc(/C=C/C(=O)N2C[C@@H](CCl)c3c2cc(O)c2[nH]c(C(F)(F)F)c(C(=O)OC)c32)c2ccccc12"
metric = "Inhibition"
endpoint_value = "85%"

[[record]]
molecule = "COC(=O)c1c(C(F)(F)F)[nH]c2c(O)cc3c(c12)[C@H](CCl)CN3C(=O)/C=C/c1ccc(/C=C/C(=O)N2C[C@@H](CCl)c3c2cc(O)c2[nH]c(C(F)(F)F)c(C(=O)OC)c32)c2c1C(=O)c1ccccc1C2=O"
metric = "Inhibition"
endpoint_value = "84%"

[[record]]
molecule = "COC(=O)c1c(C(F)(F)F)[nH]c2c(O)cc3c(c12)[C@H](CCl)CN3C(=O)c1cc2cc(-c3ccc4[nH]c(C(=O)N5C[C@@H](CCl)c6c5cc(O)c5[nH]c(C(F)(F)F)c(C(=O)OC)c65)cc4c3)ccc2[nH]1"
metric = "Inhibition"
endpoint_value = "84%"

[[record]]
molecule = "COC(=O)c1c(C(F)(F)F)[nH]c2c(O)cc3c(c12)[C@H](CCl)CN3C(=O)/C=C/c1ccc(-c2ccc(-c3ccc(/C=C/C(=O)N4C[C@@H](CCl)c5c4cc(O)c4[nH]c(C(F)(F)F)c(C(=O)OC)c54)cc3)cc2)cc1"
metric = "Inhibition"
endpoint_value = "84%"

[[record]]
molecule = "COC(=O)c1c(C(F)(F)F)[nH]c2c(O)cc3c(c12)[C@H](CCl)CN3C(=O)/C=C/c1ccc(/C=C/C(=O)N2C[C@@H](CCl)c3c2cc(O)c2[nH]c(C(F)(F)F)c(C(=O)OC)c32)c2cc3ccccc3cc12"
metric = "Inhibition"
endpoint_value = "82%"

